- ASSAY NAME: Acute toxicity, intravenous (once), ddY mice
- Type: in vivo
- MEASUREMENT CONDITIONS: mouse, in vivo, iv, formulated per Preparation Example
REPORTED ENDPOINT: LD50

{"COMPOUND": "CO[C@H]1[C@@H](O)[C@@H](C)O[C@H](O[C@H]2[C@H](Oc3cccc4c(OC(=O)c5ccc(C#N)cc5)c5c(=O)oc6ccc(C)c7c(=O)oc(c34)c5c67)O[C@H](C)[C@@H]3OC(C)(C)O[C@@H]32)[C@@H]1O", "OBSERVED": "≥ 80 mg/kg"}
{"COMPOUND": "C=CCCC(=O)Oc1c2cccc(OC3OC(C)C4OC(c5cccc([N+](=O)[O-])c5)OC4C3OC3OC(C)C(O)C(OC)C3O)c2c2oc(=O)c3c(C)ccc4oc(=O)c1c2c43 (centres unmarked)", "OBSERVED": "≥ 80 mg/kg"}
{"COMPOUND": "COC1C(O)C(C)OC(OC2C(Oc3cccc4c(OC(=O)CCNC=O)c5c(=O)oc6ccc(C)c7c(=O)oc(c34)c5c67)OC(C)C3OC(c4ccccc4C)OC32)C1O (centres unmarked)", "OBSERVED": "≥ 40 mg/kg"}
{"COMPOUND": "COC1C(O)C(C)OC(OC2C(Oc3cccc4c(OC(=O)CCNC(=O)C(F)(F)F)c5c(=O)oc6ccc(C)c7c(=O)oc(c34)c5c67)OC(C)C3OC(C)(C)OC32)C1O (centres unmarked)", "OBSERVED": "≥ 150 mg/kg"}
{"COMPOUND": "CO[C@H]1[C@@H](O)[C@@H](C)O[C@H](O[C@H]2[C@H](Oc3cccc4c(OC(=O)CCCl)c5c(=O)oc6ccc(C)c7c(=O)oc(c34)c5c67)O[C@H](C)[C@@H]3OC(c4ccccc4F)O[C@@H]32)[C@@H]1O (some centres unmarked)", "OBSERVED": "≥ 60 mg/kg"}

Reference source for all entries: patent US4760136A
